Recorded IC50, one value per entry.
# testTarget: human plasmin (Homo sapiens)
# Sequence (P00747 581-810 limits assumed): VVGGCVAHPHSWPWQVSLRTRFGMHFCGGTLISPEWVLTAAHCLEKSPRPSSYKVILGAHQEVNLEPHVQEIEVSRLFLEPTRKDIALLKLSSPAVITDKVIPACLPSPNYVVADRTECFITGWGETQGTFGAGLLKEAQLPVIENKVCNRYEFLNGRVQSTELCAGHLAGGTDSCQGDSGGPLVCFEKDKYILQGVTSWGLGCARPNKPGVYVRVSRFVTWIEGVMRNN
# Sequence (P00747 97-580 partner limits assumed): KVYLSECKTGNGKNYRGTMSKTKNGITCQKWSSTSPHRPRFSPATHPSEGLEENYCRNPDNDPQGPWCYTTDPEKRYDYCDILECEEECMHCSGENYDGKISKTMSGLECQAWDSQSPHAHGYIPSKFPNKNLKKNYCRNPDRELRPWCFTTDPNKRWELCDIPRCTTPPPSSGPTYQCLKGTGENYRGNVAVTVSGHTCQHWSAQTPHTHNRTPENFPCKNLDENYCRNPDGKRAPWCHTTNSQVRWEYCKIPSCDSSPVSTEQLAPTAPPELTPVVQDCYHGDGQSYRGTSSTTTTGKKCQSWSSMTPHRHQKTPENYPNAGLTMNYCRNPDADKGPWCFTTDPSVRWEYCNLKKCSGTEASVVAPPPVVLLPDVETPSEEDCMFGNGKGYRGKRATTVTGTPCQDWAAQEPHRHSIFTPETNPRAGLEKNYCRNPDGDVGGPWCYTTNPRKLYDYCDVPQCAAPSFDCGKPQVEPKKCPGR
# experiment: biochemical
# runParameters: read-out: Plasmin S-2251 (I50)
# Procedure: An inhibitor sample is dissolved in a 0.05M Tris-hydrochloric acid buffer solution (pH=7.4) to make the total volume of 400 μl. […] Then, 50 μl of a 0.2 casein unit/ml human plasmin is added and the mixture is incubated at a temperature of 37° C. for 4 minutes. […] Thus, the concentration I50 (μmol) of the inhibitor sample, at which the absorbance is one half (i.e., 1/2) of that obtained in the absence of the inhibitor, is determined.
Where a name gives a salt, the structure may show the parent alone.

compound	testTarget	IC50
CC(=O)c1ccc(NC(=O)[C@H](Cc2ccc(OCc3ccccc3Cl)cc2)NC(=O)[C@H]2CC[C@H](CN)CC2)cc1	human plasmin (Homo sapiens)	890 nM
NC[C@H]1CC[C@H](C(=O)N[C@@H](Cc2ccc(OCc3cccc(Cl)c3)cc2)C(=O)Nc2ccc(C(=O)c3ccccc3)cc2)CC1	human plasmin (Homo sapiens)	1100 nM
CC(=O)c1ccc(NC(=O)C(Cc2ccc(OCc3ccccc3)cc2)NC(=O)c2ccc(CN)cc2)cc1 (stereo not drawn)	human plasmin (Homo sapiens)	3400 nM
CC1CCC(NC(=O)C(Cc2ccc(Oc3ccc([N+](=O)[O-])cc3)cc2)NC(=O)c2ccc(CN)cc2)CC1C (stereo not drawn)	human plasmin (Homo sapiens)	580 nM
NC[C@H]1CC[C@H](C(=O)N[C@@H](Cc2ccc(OCc3ccccc3)cc2)C(=O)Nc2ccc(S(N)(=O)=O)cc2)CC1 [Compound No. 47, hydrochloride]	human plasmin (Homo sapiens)	8900 nM
NC[C@H]1CC[C@H](C(=O)N[C@@H](Cc2ccc(OCc3ccccc3)cc2)C(=O)NC2CC3CCC2C3)CC1 (stereo partly drawn)	human plasmin (Homo sapiens)	2500 nM

FYI, the data here is from patent US4895842A.
